Just for reference, patent US6881741B2 is where these values come from.

Target: recombinant HCV NS5B (HCV RNA-dependent RNA polymerase) (Hepatitis C virus genotype 1b, UniProt P26663)
Sequence (P26663 2420-3010 limits assumed): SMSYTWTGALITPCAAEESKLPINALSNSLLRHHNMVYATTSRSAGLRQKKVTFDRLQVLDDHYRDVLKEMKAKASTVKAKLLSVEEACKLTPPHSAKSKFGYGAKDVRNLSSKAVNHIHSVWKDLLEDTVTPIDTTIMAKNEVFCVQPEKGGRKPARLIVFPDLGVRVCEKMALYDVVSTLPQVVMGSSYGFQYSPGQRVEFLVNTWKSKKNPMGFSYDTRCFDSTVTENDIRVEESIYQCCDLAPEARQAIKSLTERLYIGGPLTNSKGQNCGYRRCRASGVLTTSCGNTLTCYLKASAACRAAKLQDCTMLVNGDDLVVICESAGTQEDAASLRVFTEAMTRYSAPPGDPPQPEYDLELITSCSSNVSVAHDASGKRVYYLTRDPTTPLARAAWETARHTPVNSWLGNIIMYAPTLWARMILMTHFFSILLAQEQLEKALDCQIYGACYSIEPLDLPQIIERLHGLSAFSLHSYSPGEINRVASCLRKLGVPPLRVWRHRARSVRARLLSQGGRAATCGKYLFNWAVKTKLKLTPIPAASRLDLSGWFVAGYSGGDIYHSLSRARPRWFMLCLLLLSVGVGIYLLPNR
Assay: biochemical
Conditions: HCV polymerase activity, list of compounds of Example 27; read-out: IC50 (polymerase activity)
# maps each entry to its IC50

Supply IC50 value. Item: CC1CCC(C(=O)N(c2cc(-c3ccccc3)sc2C(=O)O)C2COCOC2)CC1 (centres unmarked) [Compound 554] < 5 µM

Supply IC50 value. Item: CC(=O)N(Cc1ccccc1)c1cc(-c2ccccc2)sc1C(=O)O [Compound 450] < 5 µM

Supply IC50 value. Item: O=C(NC1CCC(N(C(=O)c2ccc(Cl)cc2Cl)c2cc(-c3ccccc3)sc2C(=O)O)CC1)OCc1ccccc1 (centres unmarked) [Compound 512] < 5 µM

Supply IC50 value. Item: CC(C)N(C(=O)c1ccc(Cl)cc1Cl)c1c(C(=O)O)sc(-c2ccccc2)c1F [Compound 542] 5 to 20 µM

Supply IC50 value. Item: COc1ccc(-c2cc(NS(=O)(=O)c3ccc(C)cc3)c(C(N)=O)s2)cc1 [Compound 565] 5 to 20 µM

Supply IC50 value. Item: CCC(=O)N(Cc1ccccc1)c1cc(-c2ccccc2)sc1C(=O)O [Compound 451] < 5 µM

Supply IC50 value. Item: CCC(=O)N(Cc1ccc(C(C)(C)C)cc1)c1cc(-c2ccccc2)sc1C(=O)O [Compound 417] 5 to 20 µM

Supply IC50 value. Item: CC(C)(C)OC(=O)N1CCCC(N(C(=O)c2ccc(Cl)cc2Cl)c2cc(-c3ccccc3)sc2C(=O)O)C1 (centres unmarked) [Compound 511] < 5 µM

Supply IC50 value. Item: Cc1ccc(S(=O)(=O)Nc2cc(-c3ccccc3)sc2C(N)=O)c(C)c1 [Compound 568] 5 to 20 µM

Supply IC50 value. Item: O=C(O)c1sc(-c2ccccc2)cc1N(C(=O)c1ccc(Cl)cc1Cl)C1CCCCC1 [Compound 553] < 5 µM

Supply IC50 value. Item: CC1CCC(C(=O)N(c2cc(C3CCN(C)CC3)sc2C(=O)O)C(C)C)CC1 (centres unmarked) [Compound 536] < 5 µM

Supply IC50 value. Item: CC(C)N(C(=O)c1cc(-c2ccccc2)sc1C(=O)O)c1ccc(Cl)cc1Cl [Compound 583] < 5 µM

Supply IC50 value. Item: COc1ccc(-c2cc(N(C(=O)C3CCC(C)CC3)C(C)C)c(C(=O)O)s2)cc1 (centres unmarked) [Compound 577] < 5 µM

Supply IC50 value. Item: C=CCN(C(=O)CCC(C)C)c1cc(-c2ccccc2)sc1C(=O)O [Compound 400] 5 to 20 µM

* * *

# maps each entry to its pIC50
Biological target: recombinant HCV NS5B (HCV RNA-dependent RNA polymerase) (Hepatitis C virus genotype 1b)
Assay: biochemical
Conditions: related polymerase activity (Example 27 list); read-out: IC50
pIC50: −log10 of the molar value.

Previously resolved entries follow.
{"cpd.smiles": "Cc1ccc(C(=O)N(Cc2ccccc2C)c2cc(-c3ccccc3)sc2C(=O)O)cc1", "pIC50": "> 5.30"}
{"cpd.smiles": "Cc1c(S(=O)(=O)Nc2cc(-c3ccccc3)sc2C(=O)O)sc2ccc(Cl)cc12", "pIC50": "> 5.30"}
{"cpd.smiles": "C=CCN(C(=O)Cc1ccc(Cl)c(Cl)c1)c1cc(-c2ccccc2)sc1C(=O)O", "pIC50": "4.70 to 5.30"}
{"cpd.smiles": "Cc1ccc(C(=O)N(C)c2cc(-c3ccccc3)sc2C(=O)O)c(C)c1", "pIC50": "> 5.30"}
{"cpd.smiles": "Cc1ccc(C(=O)N(c2cc(-c3ccccc3)sc2C(=O)O)C(C)C)cc1F", "pIC50": "> 5.30"}
{"cpd.smiles": "O=C(O)c1sc(-c2ccccc2)cc1N(Cc1ccc(-c2cccc(C(F)(F)F)c2)o1)C(=O)c1ccc(Cl)cc1Cl", "pIC50": "> 5.30"}
{"cpd.smiles": "O=C(O)c1sc(-c2ccc(F)cc2)cc1NS(=O)(=O)c1ccc(F)cc1F", "pIC50": "> 5.30"}
{"cpd.smiles": "Cc1ccccc1S(=O)(=O)Nc1cc(-c2cccnc2)sc1C(=O)O", "pIC50": "> 5.30"}

GET pIC50 | system: recombinant HCV NS5B (HCV RNA-dependent RNA polymerase) (Hepatitis C virus genotype 1b) | item: O=C(Nc1cc(Cl)nc(Cl)c1)Nc1cc(-c2ccccc2)sc1C(=O)O > 5.30

GET pIC50 | system: recombinant HCV NS5B (HCV RNA-dependent RNA polymerase) (Hepatitis C virus genotype 1b) | item: C=Cc1ccccc1S(=O)(=O)Nc1cc(-c2ccccc2)sc1C(=O)O 4.70 to 5.30

GET pIC50 | system: recombinant HCV NS5B (HCV RNA-dependent RNA polymerase) (Hepatitis C virus genotype 1b) | item: C=CCN(C(=O)Cc1ccc(F)cc1F)c1cc(-c2ccccc2)sc1C(=O)O 4.70 to 5.30

GET pIC50 | system: recombinant HCV NS5B (HCV RNA-dependent RNA polymerase) (Hepatitis C virus genotype 1b) | item: CC(C)c1ccc(S(=O)(=O)Nc2cc(-c3ccccc3)sc2C(=O)O)cc1 4.70 to 5.30

GET pIC50 | system: recombinant HCV NS5B (HCV RNA-dependent RNA polymerase) (Hepatitis C virus genotype 1b) | item: CC(C)(C)N(C(=O)c1ccc(Cl)cc1Cl)c1cc(-c2ccccc2)sc1C(=O)O > 5.30
